The reported numbers originate from patent US12077503B2.

# Test system: sedge, umbrella (small-flower umbrella sedge, Cyperus difformis)
# test-summary: Test B flooded paddy test
# Format: in vivo
# test-settings: Cyperus difformis, 250 g ai/ha, Flood; 0 to 100 scale where 0 is no effect and 100 is complete control; read-out: Sedge, Umbrella plant response rating
attribute-measured: pest or weed control at 250 g/ha

Some compounds with known pest or weed control at 250 g/ha results, for comparison:
In [3]: df
Out[3]:
                                   compound  reported
0  Cc1ccc([C@H]2CN(C)C(=O)[C@@H]2C(=O)Nc2cccc(F)c2F)cc1Cl [Compound 1013]      100%
1  Cc1ccc([C@H]2CN(C)C(=O)[C@]2(O)C(=O)Nc2cccc(F)c2F)cc1 (racemic) [Compound 1059]        0%
2  COc1ccc([C@H]2CN(C)C(=O)[C@@H]2C(=O)Nc2cccc(F)c2F)cc1F [Compound 1021]        0%

Prompt: Please report the recorded pest or weed control at 250 g/ha for CN1C[C@H](c2cc(F)cc(F)c2)[C@@H](C(=O)Nc2cc(O)ccc2F)C1=O [Compound 992] .
Response: 0%

Prompt: Please report the recorded pest or weed control at 250 g/ha for CN1C[C@H](c2ccc3c(c2)OCO3)[C@@H](C(=O)Nc2cccc(F)c2F)C1=O [Compound 1126] .
Response: 0%

Prompt: Please report the recorded pest or weed control at 250 g/ha for COc1ccc([C@H]2CN(C)C(=O)[C@@H]2C(=O)Nc2ccccc2SC)c(OC)c1 [Compound 1216] .
Response: 0%

Prompt: Please report the recorded pest or weed control at 250 g/ha for CN1C[C@H](c2csc3c2CCOC3)[C@@H](C(=O)Nc2cccc(F)c2F)C1=O [Compound 1268] .
Response: 0%

Prompt: Please report the recorded pest or weed control at 250 g/ha for CSc1ccccc1NC(=O)[C@H]1C(=O)NC[C@@H]1c1cc(F)c(F)c(F)c1 [Compound 1124] .
Response: 0%

* * *

# System: ryegrass, Italian (Italian ryegrass, Lolium multiflorum)
# test-summary: Test A preemergence
# Format: in vivo
# test-settings: 125 g ai/ha, preemergence; 0 to 100 scale (0 no effect, 100 complete control)
# Excerpt: […]
Plant response rating, Ryegrass, Italian by entry:
Number only, no unit.

Some molecules with known Plant response rating, Ryegrass, Italian results, for comparison:
                                   molecule                        attribute_measured  reported
0  O=C(Nc1cccc(F)c1F)C1C(=S)NCC1c1cccc(C(F)(F)F)c1 (centres unmarked)  Plant response rating, Ryegrass, Italian         0
1  CN1CC(c2cccc(OC(F)(F)C(F)F)c2)C(C(=O)Nc2cccc(F)c2F)C1=O (centres unmarked)  Plant response rating, Ryegrass, Italian        40
2  O=C1NCC(c2cccc(OCC(F)F)c2)C1C(=O)Nc1cccc(F)c1F (centres unmarked)  Plant response rating, Ryegrass, Italian         0
3  CN1CC(c2ccc3c(c2)OC(F)(F)O3)C(C(=O)Nc2cccc(F)c2F)C1=O (centres unmarked)  Plant response rating, Ryegrass, Italian        60
4  Cc1cccc(NC(=O)C2C(=O)NCC2c2cccc(OC(F)F)c2)c1F (centres unmarked)  Plant response rating, Ryegrass, Italian         0
5  CC(=O)c1ccccc1NC(=O)C1C(=O)NCC1c1ccc(F)c(F)c1 (centres unmarked)  Plant response rating, Ryegrass, Italian         0
6  O=C1NCC(c2cccc(F)c2)C1C(=O)Nc1cccc(F)c1F (racemic)  Plant response rating, Ryegrass, Italian        20

Prompt: Please report the recorded Plant response rating, Ryegrass, Italian for Cc1ccc(C2CN(C)C(=O)C2C(=O)Nc2ccccc2F)cc1F (centres unmarked) .
Response: 70
